PROTOCOL NOTES: The drug is tested on WLS-027 corresponding to human gut metagenome with ENA study accession number: PRJEB37062 and ENA sample accession number: ERS12561744 for biotransformation under anaerobic condition. The drug concentrations were measured over 9 timepoints collected between 0 and 24 hours of incubation by liquid-chromatography-coupled mass spectrometry (LC–MS); note: call rule not given here
RECORDED CONDITIONS: 2 µM
READOUT: Bacterial Biotransformation

Below: 5 compounds and their reported Bacterial Biotransformation.
• COc1c(C)c2c(c(O)c1C/C=C(\C)CCC(=O)OCCN1CCOCC1)C(=O)OC2 [MYCOPHENOLATE MOFETIL] = Compound metabolized
• CCCc1nc(C(C)(C)O)c(C(=O)OCc2oc(=O)oc2C)n1Cc1ccc(-c2ccccc2-c2nnn[nH]2)cc1 = Compound metabolized
• Cc1ccc(S(=O)(=O)NC(=O)NN2CC3CCCC3C2)cc1 (configuration not stated) [GLICLAZIDE] = Compound metabolized
• COc1c2occc2cc2ccc(=O)oc12 = Compound metabolized
• C=CCN1CC[C@]23c4c5ccc(O)c4O[C@H]2C(=O)CC[C@@]3(O)[C@H]1C5 = Compound NOT metabolized

q: What Bacterial Biotransformation value was documented for this compound, COC(=O)C1=C(C)NC(C)=C(C(=O)OC(C)C)C1c1cccc2nonc12 (configuration not stated) ?
a: Compound metabolized

q: What Bacterial Biotransformation value was documented for this compound, COCCc1ccc(OCC(O)CNC(C)C)cc1.COCCc1ccc(OCC(O)CNC(C)C)cc1.O=C(O)C(O)C(O)C(=O)O (configuration not stated) [METOPROLOL TARTRATE] ?
a: Compound NOT metabolized

q: What Bacterial Biotransformation value was documented for this compound, CNS(=O)(=O)Cc1ccc2[nH]cc(CCN(C)C)c2c1.O=C(O)CCC(=O)O [SUMATRIPTAN SUCCINATE] ?
a: Compound NOT metabolized

q: What Bacterial Biotransformation value was documented for this compound, Cc1ccnc2c1NC(=O)c1cccnc1N2C1CC1 ?
a: Compound NOT metabolized

q: What Bacterial Biotransformation value was documented for this compound, CN1C(=O)CC(C)(c2ccccc2)C1=O (configuration not stated) [METHSUXIMIDE] ?
a: Compound NOT metabolized

q: What Bacterial Biotransformation value was documented for this compound, CC(C)c1nc(CN(C)C(=O)N[C@H](C(=O)N[C@@H](Cc2ccccc2)C[C@H](O)[C@H](Cc2ccccc2)NC(=O)OCc2cncs2)C(C)C)cs1 ?
a: Compound metabolized

###

PROTOCOL NOTES: The drug is tested on WLS-010 corresponding to human gut metagenome with ENA study accession number: PRJEB37062 and ENA sample accession number: ERS12561743 for biotransformation under anaerobic condition. The drug concentrations were measured over 9 timepoints collected between 0 and 24 hours of incubation by liquid-chromatography-coupled mass spectrometry (LC–MS)
RECORDED CONDITIONS: 2 µM
Where a SMILES comes first, the peptide text is derived from it. [ ]: non-standard residue; d: D form. pGlu = O=C1CC[C@@H](C(=O)O)N1; Thz = O=C(O)[C@@H]1CSCN1
READOUT: Bacterial Biotransformation

• CC(C)(C(=O)O)c1ccc(C(O)CCCN2CCC(C(O)(c3ccccc3)c3ccccc3)CC2)cc1 (configuration not stated) [FEXOFENADINE] = Compound NOT metabolized
• CCCCC1=NC2(CCCC2)C(=O)N1Cc1ccc(-c2ccccc2-c2nnn[nH]2)cc1 = Compound metabolized
• Br.CN(C)CCCC1(c2ccc(F)cc2)OCc2cc(C#N)ccc21 (configuration not stated) [CITALOPRAM HYDROBROMIDE] = Compound NOT metabolized
• CN(C)C(=O)C(CCN1CCC(O)(c2ccc(Cl)cc2)CC1)(c1ccccc1)c1ccccc1 [LOPERAMIDE] = Compound metabolized
• COC1=CC(=O)C[C@@H](C)[C@]12Oc1c(Cl)c(OC)cc(OC)c1C2=O = Compound metabolized
• CS(=O)(=O)O.OC(CCN1CCCCC1)(c1ccccc1)c1ccccc1 [PRIDINOL METHANESULFONATE] = Compound NOT metabolized
• CCCCCOC(=O)Nc1nc(=O)n([C@@H]2O[C@H](C)[C@@H](O)[C@H]2O)cc1F = Compound metabolized
• CCCCC(=O)N(Cc1ccc(-c2ccccc2-c2nnn[nH]2)cc1)[C@H](C(=O)O)C(C)C = Compound metabolized

q: What Bacterial Biotransformation value was documented for this compound, CN1C[C@H](C(=O)N[C@]2(C)O[C@@]3(O)[C@@H]4CCCN4C(=O)[C@H](Cc4ccccc4)N3C2=O)C=C2c3cccc4[nH]cc(c34)C[C@H]21.CN1C[C@H](C(=O)N[C@]2(C)O[C@@]3(O)[C@@H]4CCCN4C(=O)[C@H](Cc4ccccc4)N3C2=O)C=C2c3cccc4[nH]cc(c34)C[C@H]21.O=C(O)C(O)C(O)C(=O)O [ERGOTAMINE TARTRATE] ?
a: Compound metabolized

q: What Bacterial Biotransformation value was documented for this compound, O=C1CC[C@@H](C(=O)N2CSC[C@H]2C(=O)O)N1 [PIDOTIMOD] ([pGlu]-[Thz]-OH) ?
a: Compound NOT metabolized

q: What Bacterial Biotransformation value was documented for this compound, NC12CC3CC(CC(C3)C1)C2 ?
a: Compound NOT metabolized

q: What Bacterial Biotransformation value was documented for this compound, CC(CN(C)C)CN1c2ccccc2CCc2ccccc21.O=C(O)/C=C\C(=O)O (configuration not stated) [TRIMIPRAMINE MALEATE] ?
a: Compound metabolized

q: What Bacterial Biotransformation value was documented for this compound, CCOC(=O)[C@H](CCc1ccccc1)N[C@@H](C)C(=O)N1[C@H](C(=O)O)C[C@H]2CCCC[C@@H]21 ?
a: Compound metabolized

q: What Bacterial Biotransformation value was documented for this compound, CCc1nc(N)nc(N)c1-c1ccc(Cl)cc1 ?
a: Compound NOT metabolized

q: What Bacterial Biotransformation value was documented for this compound, CN1CCOC(c2ccccc2)c2ccccc2C1 (configuration not stated) ?
a: Compound metabolized

q: What Bacterial Biotransformation value was documented for this compound, CCN(CC)CCOC(=O)C(Cc1cccc2ccccc12)CC1CCCO1.O=C(O)C(=O)O (configuration not stated) [NAFRONYL OXALATE] ?
a: Compound metabolized

q: What Bacterial Biotransformation value was documented for this compound, Cc1ccc(-c2cc(C(F)(F)F)nn2-c2ccc(S(N)(=O)=O)cc2)cc1 ?
a: Compound metabolized

q: What Bacterial Biotransformation value was documented for this compound, CN(C)CCc1c[nH]c2ccc(Cn3cncn3)cc12.O=C(O)c1ccccc1 [RIZATRIPTAN BENZOATE] ?
a: Compound NOT metabolized

q: What Bacterial Biotransformation value was documented for this compound, Nc1ccc(/N=N/c2ccccc2)c(N)n1 ?
a: Compound metabolized

q: What Bacterial Biotransformation value was documented for this compound, O=C(CCCN1CCC(O)(c2ccc(Cl)cc2)CC1)c1ccc(F)cc1 ?
a: Compound NOT metabolized

q: What Bacterial Biotransformation value was documented for this compound, Cc1nc(-c2ccc(OCC(C)C)c(C#N)c2)sc1C(=O)O ?
a: Compound metabolized

q: What Bacterial Biotransformation value was documented for this compound, CS(=O)(=O)O.O.O.O.O=C1Cc2cc(CCN3CCN(c4nsc5ccccc45)CC3)c(Cl)cc2N1 [ZIPRASIDONE MESYLATE] ?
a: Compound NOT metabolized

q: What Bacterial Biotransformation value was documented for this compound, O=C(O)COCCN1CCN(C(c2ccccc2)c2ccc(Cl)cc2)CC1 (configuration not stated) ?
a: Compound metabolized

q: What Bacterial Biotransformation value was documented for this compound, CC(C)(C)NC[C@H](O)COc1ccccc1C1CCCC1.CC(C)(C)NC[C@H](O)COc1ccccc1C1CCCC1.O=S(=O)(O)O [PENBUTOLOL SULFATE] ?
a: Compound metabolized

q: What Bacterial Biotransformation value was documented for this compound, Cc1ccccc1N1C(=O)c2cc(S(N)(=O)=O)c(Cl)cc2NC1C (configuration not stated) ?
a: Compound NOT metabolized
